system.under.test: T1, His-tagged CHIKV E2 LR2006 (Chikungunya virus strain LR2006, UniProt Q8JUX5 326-1220)
T1 construct: also called CHIKV pE2-E1 antigen derived from CHIKV strain LR2006; pE2-E1 target

{"binder": "M104A/N108Q (antibody, V domains shown, also called mAb2 M104A/N108Q; double mutant of mAb2 in CDRH3) VH: QVQLVQSGAEVKKPGASVKVSCKVSGYILSKLSVHWVRQAPGKGLEWMGGSEREDGETVYAQKFQGRISLTEDTSIETAYMELSSLSSEDTAVYYCATGGFWSAIGGQGVDYWGQGTLVTVSS VL: QAVVTQSPSSLPASVGDRVTITCRASQDIRNNLGWYQQKPGKAPERLIYGTSNLQSGVPSRFSGSGSGTEFTLTISSLQPEDFATYYCLQHNSYPPTFGRGTKVEIKR", "binding result": "no binding"}
{"binder": "mAb10 (antibody, V domains shown, also called mAb2M104I) VH: QVQLVQSGAEVKKPGASVKVSCKVSGYILSKLSVHWVRQAPGKGLEWMGGSEREDGETVYAQKFQGRISLTEDTSIETAYMELSSLSSEDTAVYYCATGGFWSIIGGNGVDYWGQGTLVTVSS VL: QAVVTQSPSSLPASVGDRVTITCRASQDIRNNLGWYQQKPGKAPERLIYGTSNLQSGVPSRFSGSGSGTEFTLTISSLQPEDFATYYCLQHNSYPPTFGRGTKVEIKR", "binding result": "binds"}
{"binder": "mAb12 (antibody, V domains shown, also called mAb2G109A; mAb2 G109A) VH: QVQLVQSGAEVKKPGASVKVSCKVSGYILSKLSVHWVRQAPGKGLEWMGGSEREDGETVYAQKFQGRISLTEDTSIETAYMELSSLSSEDTAVYYCATGGFWSMIGGNAVDYWGQGTLVTVSS VL: QAVVTQSPSSLPASVGDRVTITCRASQDIRNNLGWYQQKPGKAPERLIYGTSNLQSGVPSRFSGSGSGTEFTLTISSLQPEDFATYYCLQHNSYPPTFGRGTKVEIKR", "binding result": "binds"}
{"binder": "mAb2 M104A (antibody, V domains shown, also called variant comprising an alanine at position 8 of its CDRH3) VH: QVQLVQSGAEVKKPGASVKVSCKVSGYILSKLSVHWVRQAPGKGLEWMGGSEREDGETVYAQKFQGRISLTEDTSIETAYMELSSLSSEDTAVYYCATGGFWSAIGGNGVDYWGQGTLVTVSS VL: QAVVTQSPSSLPASVGDRVTITCRASQDIRNNLGWYQQKPGKAPERLIYGTSNLQSGVPSRFSGSGSGTEFTLTISSLQPEDFATYYCLQHNSYPPTFGRGTKVEIKR", "binding result": "no binding"}
{"binder": "M104A/G109A (antibody, V domains shown, also called mAb2 M104A/G109A; double mutant of mAb2 in CDRH3) VH: QVQLVQSGAEVKKPGASVKVSCKVSGYILSKLSVHWVRQAPGKGLEWMGGSEREDGETVYAQKFQGRISLTEDTSIETAYMELSSLSSEDTAVYYCATGGFWSAIGGNAVDYWGQGTLVTVSS VL: QAVVTQSPSSLPASVGDRVTITCRASQDIRNNLGWYQQKPGKAPERLIYGTSNLQSGVPSRFSGSGSGTEFTLTISSLQPEDFATYYCLQHNSYPPTFGRGTKVEIKR", "binding result": "no binding"}

All values here come from patent US20180127487A1.
